Tested on: CAL-120
EXPERIMENT_DESCRIPTION: normalised viability (% of control), CellTiter-Blue; higher = more viable cells (about 100 = DMSO control)
CONDITION: 1000 nM; incubation time: 72 h
READOUT_NAME: normalised viability (%)
Field format: number, assumed %, no unit text.

Q: Which normalised viability is listed for COc1cc2/c(=N/c3ccc(Br)cc3F)nc[nH]c2cc1OCC1CCN(C)CC1 ?
Result: 98.2

Q: Same thing, different compound: C=C1C[C@@H]2[C@H](CC[C@]3(C)C(=O)CC[C@@H]23)[C@@]2(C)C=CC(=O)C=C12
Result: 92.7

Q: Same thing, different compound: Cc1[nH]c2ccccc2c1CCNCc1ccc(/C=C/C(=O)NO)cc1
Result: 3.59

Q: Same thing, different compound: CNC(=O)c1cc(Oc2ccc(NC(=O)Nc3ccc(Cl)c(C(F)(F)F)c3)c(F)c2)ccn1
Result: 102

Q: Same thing, different compound: NC(=O)c1ccc(I)c([N+](=O)[O-])c1
Result: 98.6

Q: Same thing, different compound: COc1cc(OC2CCN(C)CC2)ccc1Nc1ncc2c(n1)n(C1CCCC1)c(=O)n2C
Result: 109

Where do these numbers come from? They come from the supplement of paper PMC4862054.
